Recorded TGI values for a group of compounds are listed next.
# System: OVCAR-4 ovarian
# Experiment summary: NCI tumour cell line growth inhibition, 48 h

**Query** Name the recorded TGI of the item O=C(/N=C/c1c(O)c2ccccc2oc1=O)Oc1ccccc1 in your answer.
**Result** 65.8 µM

**Query** Name the recorded TGI of the compound listed here: COc1ccc(-n2c(C)cc(-c3ccccc3)c2C)cc1
**Result** > 100 µM

**Query** Consider the compound COc1ccc(O)c(C(=O)c2ccc(C(=O)N[C@H]3CCCNC[C@@H]3NC(=O)c3ccncc3)cc2)c1F and give its recorded TGI.
**Result** > 25 µM

More entries:
**Query** Recall and state the measured TGI for COc1ccc(-c2csc(Cc3nc4ccccc4c(=O)n3-c3ccc(Cl)cc3)n2)cc1 .
**Result** > 100 µM

**Query** Fill in TGI for record OCc1ccn2c1[C@@H](O)CC2
**Result** > 100 µM

**Query** Respond only with TGI recorded for CCC(C)C1NC(=O)C(NC(=O)c2c3[nH]c4c(C(=O)NC5C(=O)NC(C(C)CC)C(=O)N6CCCC6C(=O)N(C)CC(=O)N(C)C(C(C)C)C(=O)OC5C)ccc(C)c4oc-3c(C)c(=O)c2=O)C(C)OC(=O)C(C(C)C)N(C)C(=O)CN(C)C(=O)C2CCCN2C1=O (stereo not given)
**Result** > 89.1 µM

**Query** Look up TGI of COc1cc2c3c(n(CCCOC(=O)C(F)(F)F)c(=O)c2cc1OC)-c1cc2c(cc1C3=O)OCO2 and report it.
**Result** > 100 µM

**Query** Provide only the value of recorded TGI for N#CC1=C(Nc2ccccc2)SC=C(c2ccccc2)NC1=NCc1ccccc1
**Result** > 100 µM

====

# System: IGROV1 ovarian
# Experiment summary: NCI tumour cell line growth inhibition, 48 h
Documented TGI across a set of compounds

**Query** Give the reported value of TGI for this record: CCOP(=O)(COCCn1ncc(=O)[nH]c1=O)OCC
**Result** > 100 µM

**Query** Tell us which TGI value is on record for Cn1cc(C2=C(c3cccc(Br)c3)C(=O)NC2=O)c2ccccc21
**Result** > 25 µM

We now examine a further compound.
**Query** Output measured TGI for this item: CCOC(=O)/C=C/[C@H](O[Si](CC)(CC)CC)C(C)(C)C
**Result** > 100 µM

====

Below: a set of entries, each annotated with reported TGI.
# Test system: NCI-H226 lung
# Experiment summary: NCI tumour cell line growth inhibition, 48 h

**Query** Write down measured TGI (NCI-H226 lung) for this compound. O=C(O)c1nc2ccc(C(F)(F)F)cc2nc1NCc1ccc(F)cc1
**Result** > 100 µM

More entries:
**Query** For NCI-H226 lung, give TGI of the listed compound: N#CC(OC1OC(COC2OC(CO)C(O)C(O)C2O)C(O)C(O)C1O)c1ccccc1 (stereo unspecified)
**Result** > 225 µM

**Query** # return TGI for CC1=CCC(C)=Nc2nc3ccccc3n21 , test system: NCI-H226 lung
**Result** > 100 µM

**Query** # assay system NCI-H226 lung: give TGI of CC(=O)[O][Ga]([Br])[O]C(C)=O
**Result** > 100 µM

**Query** For NCI-H226 lung, give the measured TGI of the entry O=C(CCc1cc(O)ccc1O)OCCc1ccccc1
**Result** > 76.3 µM

**Query** Give the observed TGI of CCC1CCc2c(c(=O)oc3c2cc(OC)c2cccc(OC)c23)C1 (stereo unspecified) for NCI-H226 lung.
**Result** > 100 µM

====

# Test system: NCI/ADR-RES ovarian
# Experiment summary: NCI tumour cell line growth inhibition, 48 h
Measured endpoint: TGI

**Query** Retrieve TGI measured for CC(C)(C)OC(=O)NC(Cc1ccc(OC(C)(C)C)cc1)C(=O)N[C@H]1CCC[C@H]1C(=O)NC(Cc1ccccc1)C(=O)N1CCCC1C(N)=O (stereo partly drawn) and print it.
**Result** > 100 µM

**Query** Provide only the value of recorded TGI for O=C(NCCCl)N(O)C(=O)Nc1ccccc1
**Result** > 100 µM

Attention now turns to another entry.
**Query** Dear colleague, please send me the reported TGI for Cc1nn(C(=O)c2ccc(Cl)cc2)c2c1C(/C=C/c1ccccc1)SC(N)=N2 (stereo not drawn) when you can.
**Result** > 10 µM

====

Reported GI50 values are given for each entry in this list.
# System: COLO 205 colon
# Experiment summary: NCI tumour cell line growth inhibition, 48 h

**Query** Identify GI50 associated with the compound C=C1C(=O)O[C@H]2[C@H]1CC/C(COC(=O)/C=C\C(=O)NCc1ccc(Cn3c(=O)sn(CCCC)c3=O)cc1)=C\CC[C@@]1(C)O[C@@H]21
**Result** 0.581 µM

**Query** Tell me its GI50 given Cc1cc(C)c(/C=C2\C(=O)Nc3ccc(NC(=O)CCCCCCC(=O)NO)cc32)[nH]1 as the entry.
**Result** 0.479 µM

**Query** Check the records and state GI50 for CC(C)(S)C(N)C(=O)O (stereo not given)
**Result** 1180 µM

**Query** Determine from records and report GI50 for COc1ccc(O)c(C(=O)c2ccc(C(=O)N[C@H]3CCCNC[C@@H]3NC(=O)c3ccncc3)cc2)c1F
**Result** > 25 µM

Continuing:
**Query** Identify the reported GI50 for the following entry. N#Cc1c(N/N=C/c2ccc(Cl)cc2Cl)nc(N)nc1N1CCCC1
**Result** 88.1 µM

====

# Tested on: COLO 205 colon
# Experiment summary: NCI tumour cell line growth inhibition, 48 h
Measured endpoint: TGI

Answered cases to consult:
**Query** For the compound CC(=O)O/C(=C1\C[C@H]2[C@@H]3CC=C4C[C@@H](OC(C)=O)CC[C@]4(C)[C@H]3CC[C@]2(C)C1=O)C(F)(F)F , give its measured TGI value.
**Result** 25.7 µM

**Query** Write down TGI measured for item Cc1ccc(NC(=O)CSc2nnc(-c3ccc(N=Cc4ccc(Cl)cc4)cc3)o2)cc1
**Result** > 100 µM

**Query** Tell me its TGI given COC(=O)/C=C1\CCC(C)O1 (stereo not drawn) as the entry.
**Result** > 100 µM

**Query** Quick one: give measured TGI for Cn1cc(C2=C(c3cccc(Br)c3)C(=O)NC2=O)c2ccccc21
**Result** > 25 µM

**Query** Provide TGI value for the following compound: CC(=O)O[C@H]1CCC2[C@@H]3CCC4Nc5[nH]ncc5C[C@]4(C)C3CC[C@@]21C (stereo partly drawn)
**Result** > 100 µM

**Query** Kindly indicate its recorded TGI. Item: COc1cc(OC)c(/C=C/c2c3ccccc3cc[n+]2C)c(OC)c1
**Result** 2.95 µM

**Query** Return value of TGI for input COc1cc(C(C)=O)cc(C(=O)N(C(C)C)C(C)C)c1[Si](C)(C)C , no commentary.
**Result** > 100 µM

Consider the record given below.
**Query** Given NCCSc1nc(-c2ccccc2)c(-c2ccccc2)o1 , respond with its TGI.
**Result** > 100 µM

====

# Test system: M14 melanoma
# Experiment summary: NCI tumour cell line growth inhibition, 48 h
Measured endpoint: TGI

**Query** Using known records, supply TGI for Nc1nc(NCC2(CO)CC2)cc(=O)[nH]1
**Result** > 100 µM

---
**Query** Please list TGI recorded for the compound CNS(=O)(=O)NNS(=O)(=O)c1ccc(Br)cc1
**Result** > 100 µM

**Query** Report TGI for Cc1cc2c(cc1C)C(=O)C1(C2)Cc2c(C)ccc(C)c2C1=O (centres undefined)
**Result** > 100 µM

**Query** Give TGI for the following compound: OCCCNc1nccc(-c2c(-c3ccc(F)cc3)nn3cc(C(F)(F)F)ccc23)n1
**Result** > 25 µM

====

# System: NCI-H23 lung
# Experiment summary: NCI tumour cell line growth inhibition, 48 h; in the data active = GI50 below about 0.43 µM; inactive = the rest
The categories you may choose from are active, inactive

Solved cases below.
**Query** Which outcome was entered for the compound COc1ccc(-n2c(C)cc(-c3ccccc3)c2C)cc1 in this test?
**Result** inactive

**Query** Kindly provide the recorded test outcome for the following compound: CCOC(=O)/C=C(/C)Sc1cc(O)c2ccccc2c1O
**Result** inactive

---
**Query** For this compound, state the assay outcome: COc1ccc(-c2ccc(-c3ccc(C(=N)N)s3)s2)cc1
**Result** active

====

# Tested on: MDA-MB-231 breast
# Experiment summary: NCI tumour cell line growth inhibition, 48 h
We use 20 µM as the dividing line for TGI: on or above the line is Fulfilled, below is Not fulfilled.

**Query** Could you tell me if the measured TGI of NC(=O)c1cc(S(=O)(=O)Nc2nnc(-c3ccccc3)c(-c3ccccc3)n2)c(SCc2ccccc2)cc1Cl reaches 20 µM or more?
**Result** Fulfilled

**Query** Please indicate if the recorded TGI for O=C(Nc1ccc(F)cc1)c1cc(S(=O)(=O)Nc2nc3ccccc3o2)c(SCc2ccccc2)cc1Cl meets or exceeds 20 µM.
**Result** Fulfilled

**Query** Evaluate CCn1sc2ccccc2c1=O : TGI at minimum 20 µM?
**Result** Fulfilled

**Query** Hi team, for CCCCSC1=N/C(=C\c2ccco2)C(Cl)=N1 , is the recorded TGI at or above 20 µM?
**Result** Fulfilled

**Query** Quick check: does O=c1cc(CO)oc(C(O)c2ccccc2)c1O (centres undefined) have TGI greater than or equal to 20 µM?
**Result** Fulfilled

New cases:
**Query** Determine whether this compound has TGI no lower than 20 µM: CC1CC[C@@]2(OC1)OC1C[C@H]3[C@@H]4CC[C@H]5CC(OC6OC(CO)C(O)C(OC7OC(CO)C(OC8OC(CO)C(O)C(OC9OC(CO)C(O)C(O)C9O)C8OC8OC(CO)C(O)C(O)C8O)C(O)C7O)C6O)[C@H](O)CC5(C)[C@H]4CCC3(C)C1[C@@H]2C (some centres undefined)
**Result** Not fulfilled

**Query** State whether the measured TGI reaches 20 µM, counting equality as reaching it, for O=C(NCCCl)N(O)C(=O)Nc1ccccc1
**Result** Fulfilled
